assay: gradient 5% acetonitrile 3 min, to 50% in 2 min, to 85% in 15 min, held 3 min, 100 µL/min; settings: column: Zorbax Extend-C18 2.1 x 50 mm; eluents: water / acetonitrile, 0.1% formic acid
readout name: RP-LC retention time (s)
Numbers only here, please. The scale is s.

Here are 3 compounds together with their reported answers.
In [3]: df
Out[3]:
                                   compound          readout_name  result_number
0  O=C1CC(c2noc(-c3ccc(OC(F)(F)F)cc3)n2)CN1c1ccc(F)cc1 (configuration not stated)  RP-LC retention time           1040
1  COc1ccc(-c2noc(-c3nnn(Cc4nc(-c5ccccc5OC)oc4C)c3C)n2)cc1  RP-LC retention time           1100
2  Cc1cc(F)ccc1N1C(=O)CN(S(C)(=O)=O)CC1(C)C(=O)NCc1ccccc1 (configuration not stated)  RP-LC retention time            804

## Input Give RP-LC retention time for Clc1cccc(-c2nnc(Cc3nc(-c4ccccc4)no3)o2)c1
## Output 1070

## Input Give the reported value of RP-LC retention time for this record: COc1cc([C@@H]2c3cc4c(cc3[C@H](O)[C@@H](CO)[C@@H]2C(=O)NCCCc2ccccc2)OCO4)cc(OC)c1OC
## Output 761
